The following compounds are listed with their measured relative viability values.
Test system: HCC-366
assay-overview: relative viability (nuclei count vs DMSO), 5 days (fraction); higher = more cells survive
test-parameters: first compound 0.1265 µM
When you answer, write just the number.

Recorded results for 5 compounds are shown here.
[
  {
    "compound": "O=C(O)c1ccc(-c2c[nH]c3ncc(-c4ccccc4)cc23)cc1C1CCCC1 + Cc1cc(Nc2cc(N3CCN(C)CC3)nc(Sc3ccc(NC(=O)C4CC4)cc3)n2)n[nH]1 [Tozasertib] (partner 0.1 µM)",
    "assay-result": 0.163
  },
  {
    "compound": "O=C(O)c1ccc(-c2c[nH]c3ncc(-c4ccccc4)cc23)cc1C1CCCC1 + N=C(N)NC(=N)NCCc1ccccc1 [Phenformin] (partner 250 µM)",
    "assay-result": 0.631
  },
  {
    "compound": "O=C(O)c1ccc(-c2c[nH]c3ncc(-c4ccccc4)cc23)cc1C1CCCC1 + COc1cccc2cc(-c3nc([C@H]4CC[C@H](C(=O)O)CC4)n4ncnc(N)c34)[nH]c12 [OSI-027] (partner 0.5 µM)",
    "assay-result": 0.849
  },
  {
    "compound": "O=C(O)c1ccc(-c2c[nH]c3ncc(-c4ccccc4)cc23)cc1C1CCCC1 + O=C(c1cc(Cc2n[nH]c(=O)c3ccccc23)ccc1F)N1CCN(C(=O)C2CC2)CC1 [Olaparib] (partner 8 µM)",
    "assay-result": 0.419
  },
  {
    "compound": "O=C(O)c1ccc(-c2c[nH]c3ncc(-c4ccccc4)cc23)cc1C1CCCC1 + Nc1ncn([C@H]2C[C@H](O)[C@@H](CO)O2)c(=O)n1 [Decitabine] (partner 2 µM)",
    "assay-result": 0.342
  }
]

For the compound shown here, O=C(O)c1ccc(-c2c[nH]c3ncc(-c4ccccc4)cc23)cc1C1CCCC1 + CC(=O)Nc1cccc(-n2c(=O)n(C3CC3)c(=O)c3c(Nc4ccc(I)cc4F)n(C)c(=O)c(C)c32)c1 [Trametinib] (partner 0.02 µM) , give the reported relative viability.
0.466

Hello, the source for this data is the supplement of paper PMC10307832, in case you need it.
